The origin of these recorded values is patent US9409916B2.

# STUDY_SYSTEM: recombinant human CL receptor/RAMP1 (Homo sapiens, UniProt O60894+Q16602)
# Construct: membranes
# Sequence (Q16602 23-461): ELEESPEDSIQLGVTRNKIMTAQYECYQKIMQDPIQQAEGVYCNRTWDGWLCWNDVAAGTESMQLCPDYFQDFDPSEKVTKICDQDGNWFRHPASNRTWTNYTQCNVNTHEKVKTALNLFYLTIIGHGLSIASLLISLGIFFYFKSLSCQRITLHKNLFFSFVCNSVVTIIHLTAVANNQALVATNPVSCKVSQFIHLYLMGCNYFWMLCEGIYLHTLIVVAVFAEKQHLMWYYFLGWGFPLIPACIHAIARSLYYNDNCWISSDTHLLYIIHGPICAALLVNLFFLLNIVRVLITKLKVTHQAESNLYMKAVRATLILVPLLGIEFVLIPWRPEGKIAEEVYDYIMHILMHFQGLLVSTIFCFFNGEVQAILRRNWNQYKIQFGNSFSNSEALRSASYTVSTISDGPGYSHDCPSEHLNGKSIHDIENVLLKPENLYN
# Sequence (O60894 27-148): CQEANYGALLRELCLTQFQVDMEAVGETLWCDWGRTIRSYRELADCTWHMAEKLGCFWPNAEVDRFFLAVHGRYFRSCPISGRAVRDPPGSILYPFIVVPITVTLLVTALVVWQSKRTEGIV
# ASSAY_PROTOCOL: Recombinant receptor binding assay (125I-hCGRP)
# DETAILS: membranes of HEK 293 cells expressing human CL receptor/RAMP1, 10 pM 125I-hCGRP
READOUT: pKi
Reminder that pKi means the negative base-10 logarithm of the concentration expressed in mol/L.

Per the record, C[C@@H]1[C@H](c2cc(F)cc(F)c2F)C[C@H](NC(=O)c2cnc3c(c2)C[C@@]2(C3)C(=O)NC(=O)N2C)C(=O)N1CC(F)(F)F has pKi of 9.55

Query C[C@@H]1[C@H](c2c(F)c(F)cc(F)c2F)C[C@H](NC(=O)c2cnc3c(c2)C[C@@]2(C3)C(=O)NC(=O)N2C)C(=O)N1CC(F)(F)F yields pKi of 10.23

The reported pKi of the molecule C[C@@H]1[C@H](c2c(F)ccc(F)c2F)C[C@H](NC(=O)c2cnc3c(c2)C[C@@]2(C3)C(=O)NC(=O)N2C)C(=O)N1CC(F)(F)F was 10.21
